Target: ERK2 (Homo sapiens)
Sequence (P28482 whole entry): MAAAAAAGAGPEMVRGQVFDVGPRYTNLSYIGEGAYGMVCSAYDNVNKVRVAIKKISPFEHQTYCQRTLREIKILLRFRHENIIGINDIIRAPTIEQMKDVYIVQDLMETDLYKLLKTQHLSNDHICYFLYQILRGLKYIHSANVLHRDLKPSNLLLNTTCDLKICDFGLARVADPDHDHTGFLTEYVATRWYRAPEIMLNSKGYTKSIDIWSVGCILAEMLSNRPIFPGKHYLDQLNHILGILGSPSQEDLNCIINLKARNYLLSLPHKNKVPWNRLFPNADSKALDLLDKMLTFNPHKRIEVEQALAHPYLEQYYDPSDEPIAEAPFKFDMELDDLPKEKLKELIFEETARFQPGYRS
Assay: ERK2 inhibition, spectrophotometric coupled-enzyme assay
Type: biochemical
Settings: activated ERK2 10 nM, 65 μM ATP, 30° C., pH 7.5; read-out: ERK2 Inhibitory Activity (Ki class)
ASSAY METRIC: Ki

- O=C(NCc1ccccc1)c1cc(-c2[nH]ncc2-c2cc(I)c(O)c([N+](=O)[O-])c2)c[nH]1: < 1 µM
- O=C(NCc1cccnc1)c1cc(-c2[nH]ncc2-c2ccc(Cl)c(Cl)c2)c[nH]1: < 1 µM
- O=C(NCc1ccc(-c2cnns2)cc1)c1cc(-c2[nH]ncc2-c2cccc(Br)c2)c[nH]1: < 1 µM
- O=C(NCCc1cnc[nH]1)c1cc(-c2[nH]ncc2-c2cccc(Cl)c2)c[nH]1: 1 to 5 µM
- NS(=O)(=O)c1ccc(CNC(=O)c2cc(-c3[nH]ncc3-c3cccc(Br)c3)c[nH]2)cc1: < 1 µM
- O=C(NC(CO)c1ccccc1)c1cc(-c2[nH]ncc2-c2cccc(Br)c2)c[nH]1 (stereo not drawn) [II-72]: < 1 µM
- O=C(NOCc1ccccc1)c1cc(-c2[nH]ncc2-c2ccc(F)cc2)c[nH]1: 1 to 5 µM
- O=C(NC(CCO)c1ccccc1)c1cc(-c2[nH]ncc2-c2cccc(Br)c2)c[nH]1 (stereo not drawn) [II-86]: < 1 µM
- CCN(C)C(=O)c1cc(-c2[nH]ncc2-c2cccc(F)c2)c[nH]1: > 5 µM
- O=C(NCc1ccco1)c1cc(-c2[nH]ncc2-c2ccccc2)c[nH]1: < 1 µM
- O=C(NOCc1ccccc1)c1cc(-c2[nH]ncc2-c2cccc(F)c2F)c[nH]1: < 1 µM
- O=C(NCc1ccccc1)c1cc(-c2[nH]ncc2-c2cccc(O)c2)c[nH]1: < 1 µM
- Cc1cccc(-c2cn[nH]c2-c2c[nH]c(C(=O)NCc3ccncc3)c2)c1: < 1 µM
- CN1CCN(C(=O)c2cc(-c3[nH]ncc3-c3ccccc3)c[nH]2)CC1: > 5 µM
- CCC(NC(=O)c1cc(-c2[nH]ncc2-c2cccc(Br)c2)c[nH]1)c1ccccc1 (stereo not drawn): < 1 µM
- O=C(c1cc(-c2[nH]ncc2-c2cccc(Br)c2)c[nH]1)N1CCC(O)(c2ccc(Br)cc2)CC1: 1 to 5 µM
- CCN(C)C(=O)c1cc(-c2[nH]ncc2-c2cccc(OC)c2)c[nH]1: > 5 µM
- CCOC(=O)c1cc(-c2[nH]ncc2-c2ccc(Cl)cc2)c[nH]1: > 5 µM

* * *

# Ki listing for each entry below
Target: ERK2 (Homo sapiens)
Test: ERK2 inhibition, spectrophotometric coupled-enzyme assay
Type: biochemical
Conditions: activated ERK2 10 nM, 65 μM ATP, 30° C., pH 7.5; read-out: ERK2 Inhibitory Activity (Ki class)
ASSAY METRIC: Ki

• COc1cccc(N2CCN(C(=O)c3cc(-c4[nH]ncc4-c4cccc(Br)c4)c[nH]3)CC2)c1 [II-122] = 1000 to 5000 nM
• COc1ccc(C[C@H](CO)NC(=O)c2cc(-c3[nH]ncc3-c3cccc(Br)c3)c[nH]2)cc1OC [II-296] = > 5000 nM
• COc1cc2c(cc1OC)C(CO)N(C(=O)c1cc(-c3[nH]ncc3-c3cccc(Br)c3)c[nH]1)CC2 (stereo not shown) [II-105] = < 1000 nM
• O=C(NCc1cccnc1)c1cc(-c2[nH]ncc2-c2ccccc2)c[nH]1 [II-18] = < 1000 nM

* * *

Target: ERK2 (Homo sapiens)
Assay: ERK2 inhibition, spectrophotometric coupled-enzyme assay
Type: biochemical
Conditions: activated ERK2 10 nM, 65 μM ATP, 30° C., pH 7.5; read-out: ERK2 Inhibitory Activity (Ki class)
# Ki listing for each entry below
ASSAY METRIC: Ki

- COc1cccc(CNC(=O)c2cc(-c3[nH]ncc3-c3cccc(Br)c3)c[nH]2)c1: < 1000 nM
- O=C(c1cc(-c2[nH]ncc2-c2cccc(Cl)c2F)c[nH]1)N1CCOCC1: 1000 to 5000 nM
- Cc1cccc(-c2cn[nH]c2-c2c[nH]c(C(=O)NC(CO)c3ccccc3)c2)c1 (stereo not drawn): < 1000 nM
- CC1CCN(C(=O)c2cc(-c3[nH]ncc3-c3cccc(Cl)c3)c[nH]2)CC1: 1000 to 5000 nM
- O=C(NCc1cccnc1)c1cc(-c2[nH]ncc2-c2ccc(F)c(Cl)c2)c[nH]1: < 1000 nM
- CS(=O)(=O)c1ccc(CNC(=O)c2cc(-c3[nH]ncc3-c3cccc(Br)c3)c[nH]2)cc1: < 1000 nM
- O=C(NCc1cccnc1)c1cc(-c2[nH]ncc2-c2ccc(F)c(F)c2)c[nH]1: 1000 to 5000 nM
- O=C(NCC1CCCO1)c1cc(-c2[nH]ncc2-c2cccc(Cl)c2F)c[nH]1 (stereo not drawn): < 1000 nM
- O=C(NCc1ccncc1)c1cc(-c2[nH]ncc2-c2cccc(F)c2F)c[nH]1: 1000 to 5000 nM

* * *

Molecular target: ERK2 (Homo sapiens)
Test: ERK2 inhibition, spectrophotometric coupled-enzyme assay
Format: biochemical
Conditions: activated ERK2 10 nM, 65 μM ATP, 30° C., pH 7.5; read-out: ERK2 Inhibitory Activity (Ki class)
pKi: −log10 of the molar value.
ASSAY METRIC: pKi

• O=C(NCc1ccncc1)c1cc(-c2n[nH]cc2-c2cc(Cl)cc(Cl)c2)c[nH]1 = > 6.00
• O=C(NCc1ccncc1)c1cc(-c2[nH]ncc2-c2cccc([N+](=O)[O-])c2)c[nH]1 = < 5.30
• CCOC(=O)c1cc(-c2[nH]ncc2-c2cccc(OC)c2)c[nH]1 = < 5.30
• O=C(NNc1cccc(C(F)(F)F)c1)c1cc(-c2[nH]ncc2-c2cccc(Br)c2)c[nH]1 = > 6.00
• NNC(=O)c1cc(-c2[nH]ncc2-c2cccc([N+](=O)[O-])c2)c[nH]1 [II-3] = > 6.00
• O=C(Nc1ccc(F)c(F)c1)c1cc(-c2[nH]ncc2-c2cccc(Br)c2)c[nH]1 = > 6.00
• O=C(c1cc(-c2[nH]ncc2-c2cccc(Br)c2)c[nH]1)N1CCN(c2cnccn2)CC1 = 5.30 to 6.00
• CNC(=O)c1cc(-c2[nH]ncc2-c2cccc(Br)c2)c[nH]1 = 5.30 to 6.00
• COc1cccc(-c2cn[nH]c2-c2c[nH]c(C(=O)NCc3cccnc3)c2)c1 = > 6.00

* * *

# pKi listing for each entry below
Molecular target: ERK2 (Homo sapiens)
Assay: ERK2 inhibition, spectrophotometric coupled-enzyme assay
Type: biochemical
Settings: ERK2 Inhibitory Activity (Ki class), activated ERK2 10 nM, 65 μM ATP, 30° C., pH 7.5
pKi: −log10 of the molar value.
ASSAY METRIC: pKi

• CCN1CCCC1CNC(=O)c1cc(-c2n[nH]cc2-c2cccc(Cl)c2)c[nH]1 (centres unmarked) = < 5.30
• O=C(NC1c2ccccc2CC1O)c1cc(-c2[nH]ncc2-c2cccc(Cl)c2)c[nH]1 (centres unmarked) = 5.30 to 6.00

* * *

Entries below carry reported pIC50 on UniProt:O14965.
Sequence (O14965 whole entry): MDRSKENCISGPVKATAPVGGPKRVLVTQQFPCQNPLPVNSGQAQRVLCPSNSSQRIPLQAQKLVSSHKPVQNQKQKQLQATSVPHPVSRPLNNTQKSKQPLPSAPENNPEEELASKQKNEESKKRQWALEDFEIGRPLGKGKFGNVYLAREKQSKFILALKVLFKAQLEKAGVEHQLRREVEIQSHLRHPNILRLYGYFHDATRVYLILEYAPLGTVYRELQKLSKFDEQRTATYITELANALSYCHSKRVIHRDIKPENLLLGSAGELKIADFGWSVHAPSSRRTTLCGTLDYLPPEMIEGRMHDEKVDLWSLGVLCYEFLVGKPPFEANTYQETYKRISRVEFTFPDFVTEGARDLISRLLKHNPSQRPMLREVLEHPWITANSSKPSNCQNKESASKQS
pIC50: −log10 of the molar value.
ASSAY METRIC: pIC50

* CCN(C)C(=O)c1cc(-c2[nH]ncc2-c2cccc(Cl)c2F)c[nH]1 | > 5.30
* O=C(NCc1ccncc1)c1cc(-c2[nH]ncc2-c2ccc(F)c(F)c2)c[nH]1 | 5.00 to 5.30
* O=C(NOCc1ccccc1)c1cc(-c2[nH]ncc2-c2ccc(F)c(F)c2)c[nH]1 | 5.00 to 5.30
* O=C(NCc1ccncc1)c1cc(-c2[nH]ncc2-c2ccc(Cl)c(Cl)c2)c[nH]1 | > 5.30
* CCN(C)C(=O)c1cc(-c2[nH]ncc2-c2ccc(Cl)c(Cl)c2)c[nH]1 | > 5.30
* O=C(NCCc1cnc[nH]1)c1cc(-c2[nH]ncc2-c2ccc(Cl)cc2)c[nH]1 | 5.00 to 5.30
* O=C(NOCc1ccccc1)c1cc(-c2[nH]ncc2-c2ccc(Cl)c(Cl)c2)c[nH]1 | 5.00 to 5.30
* COc1ccc(-c2cn[nH]c2-c2c[nH]c(C(=O)NCc3ccncc3)c2)cc1OC | 5.00 to 5.30
* O=C(NCCc1cnc[nH]1)c1cc(-c2[nH]ncc2-c2ccc(Cl)c(Cl)c2)c[nH]1 | > 5.30

* * *

# pKi listing for each entry below
Target: ERK2 (Homo sapiens)
Assay: ERK2 inhibition, spectrophotometric coupled-enzyme assay
Format: biochemical
Details: activated ERK2 10 nM, 65 μM ATP, 30° C., pH 7.5; read-out: ERK2 Inhibitory Activity (Ki class)
pKi: −log10 of the molar value.
ASSAY METRIC: pKi

* CCOC(=O)c1cc(-c2[nH]ncc2-c2cccc(F)c2)c[nH]1 [II-162] | < 5.30
* O=C(NC(CO)c1ccccc1)c1cc(-c2[nH]ncc2-c2cc(I)c(O)c([N+](=O)[O-])c2)c[nH]1 (stereo not shown) [II-42] | > 6.00
* CC(C)ONC(=O)c1cc(-c2[nH]ncc2-c2cccc(Br)c2)c[nH]1 [II-161] | < 5.30
* O=C(N[C@@H](CO)Cc1cnc[nH]1)c1cc(-c2[nH]ncc2-c2cccc(Br)c2)c[nH]1 [II-294] | < 5.30
* O=C(c1cc(-c2[nH]ncc2-c2cccc(Br)c2)c[nH]1)N1CCN(c2ccc(F)cc2)CC1 [II-128] | 5.30 to 6.00
* COc1ccc(-c2cn[nH]c2-c2c[nH]c(C(=O)NCc3ccccc3)c2)cc1 [II-117] | 5.30 to 6.00
* O=C(NOCc1ccccc1)c1cc(-c2[nH]ncc2-c2cc(Cl)cc(Cl)c2)c[nH]1 [II-51] | > 6.00
* COc1cccc(-c2cn[nH]c2-c2c[nH]c(C(=O)N3CCCC3)c2)c1 [II-24] | > 6.00
* CCOC(=O)c1cc(-c2[nH]ncc2-c2cccc(Cl)c2)c[nH]1 [II-13] | > 6.00
* O=C(c1cc(-c2[nH]ncc2-c2ccc(Cl)c(Cl)c2)c[nH]1)N1CCOCC1 [II-127] | 5.30 to 6.00
